Molecular target: Deoxycytidine kinase (Homo sapiens, UniProt P27707); also: in the data inactive means no Kd found up to 30 µM
Sequence (P27707 whole entry): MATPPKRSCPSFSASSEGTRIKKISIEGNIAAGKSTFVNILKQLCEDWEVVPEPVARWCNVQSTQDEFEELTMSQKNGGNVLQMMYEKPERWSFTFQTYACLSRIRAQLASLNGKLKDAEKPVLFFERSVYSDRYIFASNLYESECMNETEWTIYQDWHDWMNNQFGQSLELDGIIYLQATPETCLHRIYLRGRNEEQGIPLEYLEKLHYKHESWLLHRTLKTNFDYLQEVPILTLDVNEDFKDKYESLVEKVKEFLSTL
Calls of active or inactive are those of the source.
Returns: one label drawn from active, inactive

Please review the entries below; each comes with its answer.
COc1cc2ncnc(Oc3cccc(NC(=O)Nc4cc(C(C)(C)C(F)(F)F)on4)c3)c2cc1OC :: inactive
CCNC(=O)C#Cc1ccc2c(c1)NC(=O)/C2=C(\Nc1ccc(CN(C)C)cc1)c1ccccc1 :: inactive
CC(C)c1cc(CNc2nc(Nc3cc(C4CC4)[nH]n3)cc(N3CCN(C)CC3)n2)on1 :: inactive
C=CC(=O)Nc1cc2c(Nc3ccc(F)c(Cl)c3)ncnc2cc1C#CC(C)(C)N1CCN(C)CC1 [AV-412 FREE BASE] :: inactive
CCn1cc(-c2ccnc3[nH]c(-c4cccc(CN(C)C)c4)cc23)c(-c2ccc(NC(=O)N(C)C)cc2)n1 :: active
N#CC[C@H](C1CCCC1)n1cc(-c2ncnc3[nH]ccc23)cn1 :: inactive
Cc1nc(Nc2n[nH]c3c2CN(C(=O)N[C@H](CN(C)C)c2ccccc2)C3(C)C)c2sccc2n1 :: inactive
COc1cc(Nc2ncc3c(n2)-c2ccc(Cl)cc2C(c2c(F)cccc2OC)=NC3)ccc1C(=O)O :: inactive

Kindly consider the entry below.
IN: Record lookup: outcome of this test for Cc1[nH]c(/C=C2\C(=O)Nc3ccccc32)c(C)c1CCC(=O)O [ORANTINIB] ?
OUT: inactive

---

Biological target: Serine/threonine-protein kinase PLK4 (Homo sapiens, UniProt O00444); also: in the data inactive means no Kd found up to 30 µM
Sequence (O00444 whole entry): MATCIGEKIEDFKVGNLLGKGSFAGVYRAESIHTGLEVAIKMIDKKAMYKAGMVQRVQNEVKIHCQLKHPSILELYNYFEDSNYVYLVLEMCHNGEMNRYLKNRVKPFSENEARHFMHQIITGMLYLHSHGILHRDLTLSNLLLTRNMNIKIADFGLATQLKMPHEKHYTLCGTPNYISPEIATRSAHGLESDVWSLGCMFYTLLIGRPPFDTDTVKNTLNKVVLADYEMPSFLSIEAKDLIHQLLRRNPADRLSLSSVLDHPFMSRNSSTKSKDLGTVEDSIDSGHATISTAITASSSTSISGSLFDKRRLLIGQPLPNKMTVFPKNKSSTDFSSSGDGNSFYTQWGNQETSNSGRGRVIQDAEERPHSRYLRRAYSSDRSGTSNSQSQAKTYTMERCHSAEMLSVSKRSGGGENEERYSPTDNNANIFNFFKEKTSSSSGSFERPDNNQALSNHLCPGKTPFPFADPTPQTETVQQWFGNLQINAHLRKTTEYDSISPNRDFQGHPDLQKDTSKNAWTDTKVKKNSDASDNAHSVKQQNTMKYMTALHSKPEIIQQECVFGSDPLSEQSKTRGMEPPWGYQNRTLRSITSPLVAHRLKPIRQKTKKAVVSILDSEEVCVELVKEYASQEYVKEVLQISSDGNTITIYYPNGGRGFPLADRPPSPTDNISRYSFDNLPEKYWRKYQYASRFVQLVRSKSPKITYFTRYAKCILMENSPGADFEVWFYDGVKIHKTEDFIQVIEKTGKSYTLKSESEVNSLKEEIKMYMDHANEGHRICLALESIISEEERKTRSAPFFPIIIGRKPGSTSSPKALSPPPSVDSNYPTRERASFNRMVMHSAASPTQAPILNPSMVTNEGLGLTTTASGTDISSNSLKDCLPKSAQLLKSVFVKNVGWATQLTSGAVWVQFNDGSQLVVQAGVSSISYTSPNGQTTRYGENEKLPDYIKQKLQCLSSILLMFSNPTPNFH
The source made the active and inactive calls.
Returns: one label drawn from yes (1) for active, no (0) for inactive

Please review the entries below; each comes with its answer.
CNC(=O)c1nn(C)c2c1C(C)(C)Cc1cnc(Nc3ccc(N4CCN(C)CC4)cc3)nc1-2 :: no (0)
CCCCCCCCCCCCCCCCCCOP(=O)([O-])OC1CC[N+](C)(C)CC1 :: no (0)
CCNC(=O)C#Cc1ccc2c(c1)NC(=O)/C2=C(\Nc1ccc(CN(C)C)cc1)c1ccccc1 :: yes (1)
C=CC(=O)Nc1cc2c(Nc3ccc(F)c(Cl)c3)ncnc2cc1C#CC(C)(C)N1CCN(C)CC1 [AV-412 FREE BASE] :: no (0)
Cc1cc(Nc2ncnc3ccc(NC4=NC(C)(C)CO4)cc23)ccc1Oc1ccn2ncnc2c1 :: no (0)
Cc1nc(NC(=O)N2CCC[C@H]2C(N)=O)sc1-c1ccnc(C(C)(C)C(F)(F)F)c1 :: no (0)
Nc1ncnc2c1c(-c1cccc(OCc3ccccc3)c1)cn2[C@H]1C[C@@H](CN2CCC2)C1 :: no (0)
NC(=O)Nc1cc(-c2cccc(F)c2)sc1C(=O)N[C@H]1CCCNC1 :: yes (1)

IN: Record lookup: outcome of this test for Cc1nc2cc(-n3ncc(C(=O)c4cc5ccccc5[nH]4)c3N)ccc2[nH]1 ?
OUT: no (0)

IN: Record lookup: outcome of this test for Cc1nc2cc(-c3nn(C(C)C)c4ncnc(N)c34)ccc2o1 ?
OUT: no (0)

IN: Record lookup: outcome of this test for COc1cc2c(Nc3ccc(Cl)c(Cl)c3F)ncnc2cc1OC[C@@H]1C[C@@H]2CN(C)C[C@@H]2C1 ?
OUT: no (0)

IN: Record lookup: outcome of this test for CN1C/C=C/CCOc2cccc(c2)-c2ccnc(n2)Nc2cccc(c2)C1 ?
OUT: no (0)

IN: Record lookup: outcome of this test for Cn1cc(-c2cnc3ccc4ccc(CS(=O)(=O)NCc5ccccn5)cc4c(=O)c3c2)cn1 ?
OUT: no (0)

IN: Record lookup: outcome of this test for CCn1c(C(=O)N(C2CC2)C2CC2)cc2c3c(ncn3C)c(Nc3cc(C)n(C)n3)nc21 ?
OUT: no (0)

IN: Record lookup: outcome of this test for O=C(Cc1ccc(-c2ccc(OCCN3CCOCC3)cc2)cn1)NCc1ccccc1 ?
OUT: no (0)
